Source of measurements: patent US20230135152A1

Parameter: pEC50. Scope: all listed entries.
biological target: PIKFYVE (Homo sapiens, UniProt Q9Y2I7); test: Cell-based Pikfyve inhibition activity assay (EEA1 staining, mean vesicle size in BJ fibroblast cells); details: Table 4, 4 hours treatment, 3 μM Apilimod = 100% inhibition
Sequence (Q9Y2I7 whole entry): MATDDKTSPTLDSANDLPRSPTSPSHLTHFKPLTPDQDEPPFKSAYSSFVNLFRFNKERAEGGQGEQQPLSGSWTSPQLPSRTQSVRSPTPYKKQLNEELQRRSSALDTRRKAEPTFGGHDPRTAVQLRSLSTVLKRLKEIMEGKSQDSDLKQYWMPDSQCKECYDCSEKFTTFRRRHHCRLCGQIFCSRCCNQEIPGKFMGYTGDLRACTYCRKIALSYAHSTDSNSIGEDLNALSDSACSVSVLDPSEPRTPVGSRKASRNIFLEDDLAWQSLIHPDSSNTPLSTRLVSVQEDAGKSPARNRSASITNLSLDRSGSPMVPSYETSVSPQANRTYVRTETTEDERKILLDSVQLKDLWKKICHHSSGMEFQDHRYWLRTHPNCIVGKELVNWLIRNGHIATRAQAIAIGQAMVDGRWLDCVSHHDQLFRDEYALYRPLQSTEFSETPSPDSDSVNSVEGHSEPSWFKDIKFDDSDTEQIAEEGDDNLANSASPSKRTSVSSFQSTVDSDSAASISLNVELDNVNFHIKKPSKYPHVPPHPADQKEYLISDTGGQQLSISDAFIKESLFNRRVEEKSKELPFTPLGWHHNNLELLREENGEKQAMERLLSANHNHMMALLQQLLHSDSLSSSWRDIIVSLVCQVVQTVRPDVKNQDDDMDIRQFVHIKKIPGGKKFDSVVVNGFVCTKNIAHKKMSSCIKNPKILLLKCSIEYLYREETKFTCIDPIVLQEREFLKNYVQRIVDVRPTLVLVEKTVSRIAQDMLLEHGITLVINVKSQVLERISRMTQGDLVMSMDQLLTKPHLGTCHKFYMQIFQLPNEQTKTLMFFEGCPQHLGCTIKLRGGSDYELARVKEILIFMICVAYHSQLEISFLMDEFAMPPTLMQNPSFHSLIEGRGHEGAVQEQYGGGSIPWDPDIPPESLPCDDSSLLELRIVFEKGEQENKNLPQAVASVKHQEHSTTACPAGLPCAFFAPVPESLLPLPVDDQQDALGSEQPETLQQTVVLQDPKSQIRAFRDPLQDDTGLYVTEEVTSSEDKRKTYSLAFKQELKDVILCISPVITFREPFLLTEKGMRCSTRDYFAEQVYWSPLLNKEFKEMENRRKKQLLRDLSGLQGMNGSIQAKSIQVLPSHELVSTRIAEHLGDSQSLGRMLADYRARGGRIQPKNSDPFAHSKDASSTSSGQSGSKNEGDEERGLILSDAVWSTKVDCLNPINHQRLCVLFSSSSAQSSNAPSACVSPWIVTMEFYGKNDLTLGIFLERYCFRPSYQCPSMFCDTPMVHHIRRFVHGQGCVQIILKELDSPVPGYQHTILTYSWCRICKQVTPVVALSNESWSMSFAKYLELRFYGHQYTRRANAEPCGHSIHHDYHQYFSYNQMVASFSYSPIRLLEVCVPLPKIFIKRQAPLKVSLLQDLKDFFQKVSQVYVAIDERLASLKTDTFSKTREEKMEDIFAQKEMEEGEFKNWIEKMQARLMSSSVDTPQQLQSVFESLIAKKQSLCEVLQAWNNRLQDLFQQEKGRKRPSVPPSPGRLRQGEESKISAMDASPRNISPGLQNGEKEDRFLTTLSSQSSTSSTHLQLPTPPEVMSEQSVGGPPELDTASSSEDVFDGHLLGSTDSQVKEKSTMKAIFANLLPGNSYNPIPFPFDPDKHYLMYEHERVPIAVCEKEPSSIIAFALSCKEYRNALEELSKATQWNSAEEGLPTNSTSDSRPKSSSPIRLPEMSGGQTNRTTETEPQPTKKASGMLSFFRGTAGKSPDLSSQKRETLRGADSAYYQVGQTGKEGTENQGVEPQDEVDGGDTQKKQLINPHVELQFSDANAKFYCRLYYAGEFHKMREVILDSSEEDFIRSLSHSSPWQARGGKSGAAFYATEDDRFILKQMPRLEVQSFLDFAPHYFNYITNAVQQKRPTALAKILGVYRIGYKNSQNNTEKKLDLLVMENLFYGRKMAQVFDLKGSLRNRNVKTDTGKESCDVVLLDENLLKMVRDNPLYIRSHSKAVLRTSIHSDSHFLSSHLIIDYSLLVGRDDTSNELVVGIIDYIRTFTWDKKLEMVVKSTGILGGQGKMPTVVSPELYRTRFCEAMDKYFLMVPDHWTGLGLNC
pEC50: −log10 of the molar value.

The cases that follow already have their pEC50 on record.
| compound | pEC50 |
| --- | --- |
| Cc1cccc(-c2ccn(-c3cc(N4CCOCC4)nc(OCCc4cnccn4)n3)n2)c1 [Compound 94] | > 7.70 |
| CO[C@H](CO)c1nc(N2CCOCC2)cc(-n2ccc(-c3cccc4ncsc34)n2)n1 [Compound 274] | < 5.30 |
| Cc1cccc(-c2ccn(-c3cc(N4CCOCC4)nc(OCc4ncccc4F)n3)n2)c1 [Compound 95] | 7.00 to 7.70 |
| Cc1cccc(-c2ccn(-c3cc(N4CCOCC4)nc([C@H]4COCCO4)n3)n2)c1 (single isomer, unassigned) [Compound 325] | 5.30 to 6.30 |

Reported pEC50 for CCCc1ccn(-c2cc(N3CCOCC3)nc(OCCc3cnn(C)c3)n2)n1 [Compound 124] : what is it?
< 5.30

// repeat for COc1nc(N2CCOCC2)cc(-n2ccc(-c3cccc(C)c3)n2)n1 [Compound 59] and report
7.00 to 7.70

Would you kindly repeat that for Cc1cccc(-c2ccn(-c3cc(N4CCOCC4)nc(OC[C@@H](O)c4ccccc4)n3)n2)c1 (single isomer, unassigned) [Compound 57] ?
7.00 to 7.70

And then CO[C@H](CO)c1nc(N2CCOCC2)cc(-n2nc(-c3cccc(C)c3)cc2C)n1 (single isomer, unassigned) [Compound 224] , what is it?
6.30 to 7.00

---

Known IC50 of a selection of molecules
molecular target: PIKFYVE (Homo sapiens, UniProt Q9Y2I7); experiment: PIKFYVE assay (luciferase ADP-Glo kinase assay, Promega); format: biochemical; details: Table 3

Worked examples follow.
| molecule | assayed.target | IC50 |
| --- | --- | --- |
| CO[C@H](CO)c1nc(N2CCOCC2)cc(-n2nc(-c3c[nH]c4cccnc34)cc2C)n1 | PIKFYVE (Homo sapiens, UniProt Q9Y2I7) | 100 to 5000 nM |
| Cc1c2ccc(CO)cc2nn1-c1cc(N2CCOCC2)nc(OCCc2cnn(C)c2)n1 | PIKFYVE (Homo sapiens, UniProt Q9Y2I7) | 10 to 100 nM |
| CO[C@H](CO)c1nc(N2CCOCC2)cc(-n2ccc(-c3cn(C)c4ccccc34)n2)n1 (single isomer, unassigned) | PIKFYVE (Homo sapiens, UniProt Q9Y2I7) | 3 to 10 nM |
| CO[C@H](CO)c1nc(N2CCOCC2)cc(-n2nc(-c3ccccc3)cc2C2CC2)n1 (single isomer, unassigned) | PIKFYVE (Homo sapiens, UniProt Q9Y2I7) | 10 to 100 nM |
| Cc1cc(-c2cccc3c2OCCN3)nn1-c1cc(N2CCOCC2)nc(OCCc2cnn(C)c2)n1 | PIKFYVE (Homo sapiens, UniProt Q9Y2I7) | 10 to 100 nM |
| Cc1cc(Oc2ccn(-c3cc(N4CCOCC4)nc(OCCc4cnn(C)c4)n3)n2)ccn1 | PIKFYVE (Homo sapiens, UniProt Q9Y2I7) | 10 to 100 nM |
| Cc1cccc(-c2cc(N3CCOCC3)n(-c3cc(N4CCOCC4)nc(OCCc4cnn(C)c4)n3)n2)c1 | PIKFYVE (Homo sapiens, UniProt Q9Y2I7) | < 3 nM |
| Cc1cccc(-c2ccn(-c3cc(N4CCOCC4)nc(OCC4CC4)n3)n2)c1 | PIKFYVE (Homo sapiens, UniProt Q9Y2I7) | 3 to 10 nM |

Need IC50 of `Cc1cccc(-c2ccn(-c3cc(N4CCOCC4)nc(OCC#N)n3)n2)c1` , thanks.
3 to 10 nM

Next record, please: `CO[C@@H](CO)c1nc(N2CCOCC2)cc(-n2nc(-c3c[nH]c4cnccc34)cc2C)n1`
100 to 5000 nM

Ok, now `COc1ccc(CCOc2nc(N3CCOCC3)cc(-n3ccc(-c4cccc(C)c4)n3)n2)cc1OC`
< 3 nM

Same again, this time with `Cc1cccc(-c2ccn(-c3cc(N4CCOCC4)nc(COCc4cn[nH]c4)n3)n2)c1`
< 3 nM

---

target: PIKFYVE (Homo sapiens); assay: PIKFYVE assay (luciferase ADP-Glo kinase assay, Promega); format: biochemical; settings: Table 2
Measured IC50 accompanies every entry in the list below.

Give its IC50 value. Item: `COc1cccc(-c2ccn(-c3cc(N4CCOCC4)nc(N)n3)n2)c1`
< 5 nM

Cool, now `Cc1cccc(-c2ccn(-c3cc(N4CCOCC4)nc(NC(=O)Cc4cnn(C)c4)n3)n2)c1`
< 5 nM

Now the same for `Cc1cccc(-c2ccn(-c3cc(N4CCOCC4)nc(OCc4cccnn4)n3)n2)c1`
< 5 nM

And then COC(c1ccccc1)c1nc(N2CCOCC2)cc(-n2ccc(-c3ccccc3)n2)n1 (centres unmarked) , what is it?
5 to 100 nM

One more molecule: COC(CO)c1nc(N2CCOCC2)cc(-n2ccc(-c3cccc(C)c3)n2)n1 (centres unmarked)
< 5 nM

---

The molecules listed here are annotated with their EC50.
biological target: PIKFYVE (Homo sapiens); assay: Cell-based Pikfyve inhibition activity assay (EEA1 staining, mean vesicle size in BJ fibroblast cells); settings: Table 4, 4 hours treatment, 3 μM Apilimod = 100% inhibition

The cases that follow already have their EC50 on record.
| molecule | EC50 |
| --- | --- |
| CCc1cc(-c2ccccc2)nn1-c1cc(N2CCOCC2)nc(OCCc2cnn(C)c2)n1 | 0.02 to 0.1 µM |
| Cc1cccc(-c2cc([C@H](C)O)n(-c3cc(N4CCOCC4)nc(OCCc4cnn(C)c4)n3)n2)c1 (single isomer, unassigned) | < 0.02 µM |
| COCc1cc(-c2ccccc2)nn1-c1cc(N2CCOCC2)nc(OCCc2cnn(C)c2)n1 | 0.02 to 0.1 µM |

We next turn to a different molecule, shown below.
Query: EC50; subject: `CC#CCOc1nc(N2CCOCC2)cc(-n2ccc(-c3cccc(C)c3)n2)n1`
0.1 to 0.5 µM

---

target: PIKFYVE (Homo sapiens, UniProt Q9Y2I7); assay: Cell-based Pikfyve inhibition activity assay (EEA1 staining, mean vesicle size in BJ fibroblast cells); details: Table 4, 4 hours treatment, 3 μM Apilimod = 100% inhibition
property.label: EC50

| molecule | EC50 |
| --- | --- |
| Cc1cccc(-c2ccn(-c3cc(N4CCOCC4)nc(-n4cnc(CCO)c4)n3)n2)c1 [Compound 339] | 100 to 500 nM |
| Cc1cccc(-c2ccn(-c3cc(N4CCOCC4)nc(OCCO)n3)n2)c1 [Compound 121] | 100 to 500 nM |
| CO[C@H](CO)c1nc(N2CCOCC2)cc(-n2ccc(-c3c[nH]c4ncccc34)n2)n1 [Compound 292] | 20 to 100 nM |
| Cn1cc(CCOc2nc(N3CCOCC3)cc(-n3ccc(-c4cccc(CO)c4)n3)n2)cn1 [Compound 179] | < 20 nM |

GET /values?readout=EC50&item= Cc1cccc(-c2ccn(-c3cc(N4CCOCC4)nc(OCCOc4ccccc4)n3)n2)c1 [Compound 93]
100 to 500 nM

Input COC(CO)(c1ccccc1)c1nc(N2CCOCC2)cc(-n2ccc(-c3cccc(C)c3)n2)n1 (centres unmarked) [Compound 229]
100 to 500 nM

Another molecule to look at: Cn1cc(CCOc2nccc(N3CCOCC3)n2)cn1 [Compound 173]
> 5000 nM

Would you mind doing COC(C)(CO)c1nc(N2CCOCC2)cc(-n2ccc(-c3cccc(C)c3)n2)n1 (centres unmarked) [Compound 226] as well?
500 to 5000 nM

---

target: PIKFYVE (Homo sapiens, UniProt Q9Y2I7); experiment: Cell-based Pikfyve inhibition activity assay (EEA1 staining, mean vesicle size in BJ fibroblast cells); conditions: Table 4, 4 hours treatment, 3 μM Apilimod = 100% inhibition
property.label: EC50

Solved entries:
| compound | EC50 |
| --- | --- |
| Cc1cccc(-c2ccn(-c3cc(N4CCOCC4)nc(NC(=O)Cc4cnn(C)c4)n3)n2)c1 | 100 to 500 nM |
| COCC(O)c1nc(N2CCOCC2)cc(-n2ccc(-c3cccc(C)c3)n2)n1 (stereo not shown) | 100 to 500 nM |
| Cc1cccc(-c2ccn(-c3cc(N4CCOCC4)nc([C@@H]4CCOC4)n3)n2)c1 (single isomer, unassigned) | > 5000 nM |
| Cc1cccc(-c2ccn(-c3cc(N4CCOCC4)nc([C@@H](CO)OC(F)F)n3)n2)c1 (single isomer, unassigned) | 500 to 5000 nM |
| Cc1cccc(-c2ccn(-c3cc(N4CCOCC4)nc(COCc4cnn(C)c4)n3)n2)c1 | 20 to 100 nM |

# lookup: EC50 of `Cc1cccc(-c2ccn(-c3cc(N4CCOCC4)nc(OCCc4cnn(C)c4)n3)n2)n1`
100 to 500 nM

Item: `COc1cccc(-c2ccn(-c3cc(N4CCOCC4)nc(N)n3)n2)c1`
100 to 500 nM
